Would you mind telling me the reported TL1A Binding Level (Late) of each entry?
Molecular target: T1, human TL1A extracellular domain with N-terminal HIS and FLAG tag (human, UniProt O95150 72-251)
T1 construct: the whole entry is named
T1 sequence: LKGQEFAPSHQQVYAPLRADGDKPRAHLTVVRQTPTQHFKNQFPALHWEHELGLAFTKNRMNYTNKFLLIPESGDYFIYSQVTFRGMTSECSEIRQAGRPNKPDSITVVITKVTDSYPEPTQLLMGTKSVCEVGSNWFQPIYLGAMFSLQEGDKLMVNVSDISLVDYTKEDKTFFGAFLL
Experiment: SPR Run 5, Ab from supernatant captured on Protein A, TL1A 5 ug/mL, timepoint 220
Numbers only, in RU.

Worked examples follow.
320-400 (antibody, human IgG1, name in Kabat numbering, V domains shown, human IgG1, lambda) VH: QVQLVQSGAEVKKPGASVKVSCKASGDTFTSYDINWVRQAPGQGLEWMGWLNPNSGNTGYAQKFQGRVTMTADRSTSTAYMELSSLRSEDTAVYYCAREVPETAAFEYWGQGTLVTVSS VL: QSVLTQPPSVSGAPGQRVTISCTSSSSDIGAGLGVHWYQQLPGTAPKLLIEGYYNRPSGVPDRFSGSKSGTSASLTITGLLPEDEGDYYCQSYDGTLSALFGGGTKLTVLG :: 11
320-431 (antibody, human IgG1, name in Kabat numbering, V domains shown, human IgG1, lambda) VH: QVQLVQSGAEVKKPGASVKVSCKASGYTFTAYDINWVRQAPGQGLEWMGWLNPNSGNTGYAQKFQGRVTMTADRSTSTAYMELSSLRSEDTAVYYCAREVPETAAFEYWGQGTLVTVSS VL: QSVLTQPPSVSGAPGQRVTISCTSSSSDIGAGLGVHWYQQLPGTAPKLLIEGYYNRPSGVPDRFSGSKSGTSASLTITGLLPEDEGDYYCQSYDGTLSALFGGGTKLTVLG :: 6

Next up:
In: Would you kindly share the measured TL1A Binding Level (Late) for 320-387 (antibody, human IgG1, name in Kabat numbering, V domains shown, human IgG1, lambda) VH: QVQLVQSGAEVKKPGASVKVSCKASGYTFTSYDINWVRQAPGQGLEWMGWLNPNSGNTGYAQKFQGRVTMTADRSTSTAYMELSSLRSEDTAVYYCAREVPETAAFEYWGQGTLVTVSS VL: QSVLTQPPSVSGAPGQRVTISCTSSSSDIGAGLGVHWYQQLPGTAPKLLIEGYYNRPSGVPDRFSGSKSGTSASLTITGLLPEDEGDYYCQSYDGTLSAYFGGGTKLTVLG ?
Out: 10
